system: NCI-H596 (Other Solid Carcinomas); assay: Bliss excess, mean over the matrix (fraction); higher = more synergy;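 also: after 72 h of two-drug dosing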
Parameter Measured: Bliss excess
Answer as a number with no unit attached.

Example entries and their recorded answers appear below.
CC1(C)CCC(CN2CCN(c3ccc(C(=O)NS(=O)(=O)c4ccc(NCC5CCOCC5)c([N+](=O)[O-])c4)c(Oc4cnc5[nH]ccc5c4)c3)CC2)=C(c2ccc(Cl)cc2)C1 [Venetoclax] + C1CN(CCC1(C(=O)N[C@@H](CCO)C2=CC=C(C=C2)Cl)N)C3=NC=NC4=C3C=CN4 [Capivasertib] (first compound max 1 µM, 7x7, partner max 3 µM) = -0.0211
C=CCn1c(=O)c2cnc(Nc3ccc(N4CCN(C)CC4)cc3)nc2n1-c1cccc(C(C)(C)O)n1 [AZD1775] + C[C@@H]1COCCN1C2=NC(=NC(=C2)C3(CC3)[S@](=N)(=O)C)C4=C5C=CNC5=NC=C4 [AZD6738] (first compound max 1 µM, partner max 10 µM) = 0.0323

Shifting focus to the compound that follows.
Prompt line: Please supply the value of reported Bliss excess for the item C=CCn1c(=O)c2cnc(Nc3ccc(N4CCN(C)CC4)cc3)nc2n1-c1cccc(C(C)(C)O)n1 [AZD1775] + O=C(c1cc(Cc2n[nH]c(=O)c3ccccc23)ccc1F)N1CCN(C(=O)C2CC2)CC1 [Olaparib] (first compound max 1 µM, partner max 10 µM)
Response line: -0.0963
